// data source = PubChem BioAssay (NCATS)

# tested_on: ATPase family AAA domain-containing protein 5 (Homo sapiens) (UniProt Q96QE3)
# Sequence (Q96QE3 whole entry, looked up, the tested form may be a part): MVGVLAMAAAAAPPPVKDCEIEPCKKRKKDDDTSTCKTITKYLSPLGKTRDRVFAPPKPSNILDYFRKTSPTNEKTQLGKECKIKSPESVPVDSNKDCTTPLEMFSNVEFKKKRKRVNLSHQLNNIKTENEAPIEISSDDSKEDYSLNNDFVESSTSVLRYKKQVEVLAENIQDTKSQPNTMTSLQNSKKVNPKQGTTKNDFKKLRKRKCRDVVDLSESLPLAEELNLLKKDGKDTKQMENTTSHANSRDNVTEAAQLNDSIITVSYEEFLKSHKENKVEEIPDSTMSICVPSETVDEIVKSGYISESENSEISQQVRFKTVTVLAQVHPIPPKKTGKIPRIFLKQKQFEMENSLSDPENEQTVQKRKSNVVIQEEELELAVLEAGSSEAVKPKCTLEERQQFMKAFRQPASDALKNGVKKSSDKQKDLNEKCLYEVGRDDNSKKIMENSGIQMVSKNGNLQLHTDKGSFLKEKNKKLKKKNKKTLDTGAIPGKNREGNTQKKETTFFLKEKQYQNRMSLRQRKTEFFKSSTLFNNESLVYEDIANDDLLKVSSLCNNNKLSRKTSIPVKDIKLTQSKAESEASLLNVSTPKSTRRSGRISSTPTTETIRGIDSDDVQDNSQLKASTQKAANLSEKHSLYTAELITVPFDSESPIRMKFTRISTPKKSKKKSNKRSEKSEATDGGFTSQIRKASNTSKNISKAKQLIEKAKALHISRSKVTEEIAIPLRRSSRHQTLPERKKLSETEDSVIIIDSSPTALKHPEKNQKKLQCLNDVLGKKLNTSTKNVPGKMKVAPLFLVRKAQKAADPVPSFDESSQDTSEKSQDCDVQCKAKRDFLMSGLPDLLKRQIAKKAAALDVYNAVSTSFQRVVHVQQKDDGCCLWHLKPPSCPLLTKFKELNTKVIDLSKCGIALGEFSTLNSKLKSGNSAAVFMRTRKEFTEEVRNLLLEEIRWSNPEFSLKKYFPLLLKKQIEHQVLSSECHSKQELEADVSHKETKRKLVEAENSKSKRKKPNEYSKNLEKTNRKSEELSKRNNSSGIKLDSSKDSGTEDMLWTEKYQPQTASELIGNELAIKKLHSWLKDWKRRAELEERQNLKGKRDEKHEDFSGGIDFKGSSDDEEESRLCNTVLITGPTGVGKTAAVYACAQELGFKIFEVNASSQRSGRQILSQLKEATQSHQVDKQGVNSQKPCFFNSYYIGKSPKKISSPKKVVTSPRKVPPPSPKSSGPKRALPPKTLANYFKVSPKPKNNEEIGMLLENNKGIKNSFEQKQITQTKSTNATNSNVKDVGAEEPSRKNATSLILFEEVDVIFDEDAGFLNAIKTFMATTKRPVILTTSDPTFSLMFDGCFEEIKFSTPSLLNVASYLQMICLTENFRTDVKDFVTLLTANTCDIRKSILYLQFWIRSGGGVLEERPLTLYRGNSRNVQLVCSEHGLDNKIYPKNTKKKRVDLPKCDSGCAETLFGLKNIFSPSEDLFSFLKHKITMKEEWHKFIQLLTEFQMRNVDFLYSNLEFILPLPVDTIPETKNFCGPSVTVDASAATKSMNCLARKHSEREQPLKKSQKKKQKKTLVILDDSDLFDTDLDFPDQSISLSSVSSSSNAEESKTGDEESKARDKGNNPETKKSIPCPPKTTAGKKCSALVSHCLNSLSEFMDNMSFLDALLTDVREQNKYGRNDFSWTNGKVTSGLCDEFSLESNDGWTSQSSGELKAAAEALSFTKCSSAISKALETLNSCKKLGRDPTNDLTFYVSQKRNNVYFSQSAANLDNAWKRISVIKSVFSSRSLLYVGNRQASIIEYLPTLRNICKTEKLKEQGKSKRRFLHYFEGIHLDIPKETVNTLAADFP
# test_name: Validation screen for small molecules that inhibit ELG1-dependent DNA repair in human embryonic kidney (HEK293T) cells expressing luciferase-tagged ELG1 (AID 493107); also: nearly all actives have a fitted effect of over 70% in size
# condition_context: HEK293T ELG1-luciferase level, luminescence, 5-fluorouridine co-treatment, 16 h; series mostly up to 46.1 µM
Results filed as inconclusive are left out. Calls of active or inactive are those of the source. Calls follow the shape of the dose curve; as a rule, active = well fitted inhibition curve with a large enough effect; inconclusive = small, poorly fitted or top-dose-only effect, or effect the other way; inactive = flat fitted curve, though single readings scatter.
Your response should consist of one outcome taken from Yes = active, No = inactive

Request: Could you kindly confirm the outcome this assay logged for O=NN(CCCl)C(=O)NCCCl ?
Result: No

Request: Entry c1ccc([C@H]2CN3CCSC3=N2)cc1 : call = ?
Result: No

Request: For Cc1cn[nH]c1 , which call appears in the assay record?
Result: No

Request: Dear all, I need the recorded test outcome for Cc1ccccc1C(OCCN(C)C)c1ccccc1 (stereo not drawn) , thank you.
Result: No

Request: Can you look up the reported call for CCn1cc(C(=O)O)c(=O)c2cc(F)c(N3CCNC(C)C3)c(F)c21 (stereo not drawn) for me?
Result: No

Request: Returns: the outcome recorded for O=c1[nH]cnc2[nH]ncc12 in this assay.
Result: No

Request: Called result for NCCCC(N)(C(=O)O)C(F)F (stereo not drawn)
Result: No

Request: Assay outcome for CC(=O)Oc1ccccc1C(=O)O : what was it?
Result: No

Request: What is the recorded call for this compound in the test? OC(CN1CCC(Cc2ccc(F)cc2)CC1)c1ccc(Cl)cc1 (stereo not drawn)
Result: No

Request: Can you look up the reported call for Oc1ccc(C2CNCCc3c2cc(O)c(O)c3Cl)cc1 (stereo not drawn) for me?
Result: No

Request: Assay result, entry O=C(Nc1nc2ccccc2n1CCN1CCOCC1)c1cccc([N+](=O)[O-])c1 — outcome?
Result: Yes

Request: Which result was noted for this compound in the test: NC(N)=NC(=O)c1nc(Cl)c(N)nc1N
Result: No

Request: Returns: the outcome recorded for OC(CCN1CCCCC1)(c1ccccc1)C1CC2C=CC1C2 (stereo not drawn) in this assay.
Result: No
